- system: Tyrosine-protein kinase Yes (Homo sapiens);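 note: mean inhibition of YES, from the GSK PKIS dataset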
- condition.description: at 0.1 µM
quantity.measured: inhibition (%)
Kindly answer with a numeric value in %, unit omitted.

Tell me the measured inhibition of "COc1ccc(-c2cc(-c3c[nH]nc3-c3ccccn3)ccn2)cc1" , please. 3.5

Tell me the measured inhibition of "COc1ccc2c(-c3ccnc(Nc4cccc(OC(F)(F)F)c4)n3)cnn2n1" , please. 2.47

Tell me the measured inhibition of "COc1ccc(-c2oc3ncnc(N)c3c2-c2ccc(NC(=O)Nc3cc(C(F)(F)F)ccc3F)cc2)cc1" , please. 15.7

Tell me the measured inhibition of "Nc1ncc(-c2cccc(S(N)(=O)=O)c2)c2scc(-c3ccc(F)c(Cl)c3)c12" , please. 11.5

Tell me the measured inhibition of "Nc1nc(-c2ccc(F)cc2)c(-c2ccc3ncccc3n2)s1" , please. 6.52

Tell me the measured inhibition of "c1ccc(COc2ccc(Nc3ncnc4ccc(-c5ccco5)cc34)cc2)cc1" , please. 3.28

Tell me the measured inhibition of "N#Cc1c(NC(=O)CN2CCOCC2)sc2c1CCCC2" , please. 3.9

Tell me the measured inhibition of "CCn1c(-c2nonc2N)nc2c(C#CC(C)(C)O)nc(OC[C@H](N)c3ccccc3)cc21" , please. 2.49

Tell me the measured inhibition of "Fc1ccc(-c2nn3ccccc3c2-c2ccncc2)cc1" , please. 0.18

Tell me the measured inhibition of "CNC(=O)c1cncc(/C=C/c2ccccc2Cl)c1" , please. 3.64

Tell me the measured inhibition of "Cc1ccc(O)cc1Nc1ccnc2cc(-c3ccccn3)ccc12" , please. 58.2

Tell me the measured inhibition of "COc1cccc(-c2c[nH]c3c(N/N=C/c4ccncc4)ncnc23)c1" , please. 19.6

Tell me the measured inhibition of "Nc1nc(-c2cccc(Cl)c2)c(-c2ccc3ncccc3n2)s1" , please. 4.06

Tell me the measured inhibition of "COc1cccc(-n2ncc3c(N/N=C/c4ccc(F)cc4)ncnc32)c1" , please. 5.87

Tell me the measured inhibition of "O=S(=O)(CCNCc1ccc(-c2ccc3ncnc(Nc4ccc(OCc5cccc(F)c5)c(Cl)c4)c3c2)o1)c1ccccc1" , please. 3.79

Tell me the measured inhibition of "CC(C)COC(=O)c1ccc2c(c1)/C(=C/Nc1ccc(S(N)(=O)=O)cc1)C(=O)N2" , please. 0.49

Tell me the measured inhibition of "CC(C)(CO)CNC(=O)c1ccc2c(c1)/C(=N/Nc1ccc(S(N)(=O)=O)cc1)C(=O)N2" , please. 1.79

Tell me the measured inhibition of "CCc1nn2ncccc2c1-c1ccnc(NC2CC2)n1" , please. 1.2

Tell me the measured inhibition of "CC(=O)Nc1cccc(C#Cc2cncnc2Nc2ccc(OCc3cccc(F)c3)c(Cl)c2)c1" , please. 1.2

Tell me the measured inhibition of "COc1cc(N2CCN(C(C)C)CC2)ccc1Nc1nc(Nc2ccc(F)cc2C(N)=O)c2cc[nH]c2n1" , please. 0.75

Tell me the measured inhibition of "FC(F)(F)c1cccc(-c2nn3ncccc3c2-c2ccnc(Nc3ccc4c(c3)OCCO4)n2)c1" , please. 32.1

Tell me the measured inhibition of "CC(=O)NCc1cccc(C#Cc2cncnc2Nc2ccc(OCc3cccc(F)c3)c(Cl)c2)c1" , please. 0.55

Tell me the measured inhibition of "O=C(Nc1n[nH]c2cc(-c3ccc(F)cc3)ccc12)C1CC1" , please. 1.98

Tell me the measured inhibition of "Fc1ccc(-c2nn3ncccc3c2-c2ccnc(Nc3ccc4c(c3)OCCO4)n2)cc1" , please. 86.3

Tell me the measured inhibition of "Fc1cccc(COc2ccc(Nc3ncnc4sc(-c5ccco5)cc34)cc2Cl)c1" , please. 1.73

Tell me the measured inhibition of "CCCN1CCC(c2ccc(Nc3nc(Nc4cc(F)ccc4C(N)=O)c4cc[nH]c4n3)c(OC)c2)CC1" , please. 5.76

Tell me the measured inhibition of "CN1CCC(n2cnc(-c3ccc(F)cc3)c2-c2ccnc(N)n2)CC1" , please. 2.09

Tell me the measured inhibition of "NC(=O)c1sc(-n2cnc3ccc(C(F)(F)F)cc32)cc1OCc1ccccc1Br" , please. 2.93

Tell me the measured inhibition of "Cc1cccc2c1NC(=O)/C2=N\Nc1ccc(S(N)(=O)=O)cc1" , please. 0.81

Tell me the measured inhibition of "COC(=O)Nc1nc2ccc(S(=O)(=O)c3ccc(NC(=O)Nc4cc(C(F)(F)F)ccc4F)cc3)cc2[nH]1" , please. 1.97

Tell me the measured inhibition of "COc1ccc(-c2nn3ncccc3c2-c2ccnc(Nc3ccc4c(c3)OCCO4)n2)cc1" , please. 79.3

Tell me the measured inhibition of "COc1cc2c(cc1Nc1nc(Nc3ccsc3C(N)=O)c3cc[nH]c3n1)N(C(=O)CN(C)C)CCC2(C)C" , please. 2.57

Tell me the measured inhibition of "COc1cc(/C=N/Nc2ncnc3[nH]ncc23)ccc1O" , please. 16.4

Tell me the measured inhibition of "CNC(=O)c1cc(-c2ccc(F)cc2)cc(-c2ccc(S(=O)(=O)N3CCCC3)cc2)c1N" , please. 2.18

Tell me the measured inhibition of "Fc1ccc(-c2cc(-c3c[nH]nc3-c3ccccn3)ccn2)cc1" , please. 5.64

Tell me the measured inhibition of "Cc1cccc(Nc2ncc(-c3ccccc3)o2)c1" , please. 0.94

Tell me the measured inhibition of "CNC(=O)c1cccc(C#Cc2cncnc2Nc2ccc(OCc3cccc(F)c3)c(Cl)c2)c1" , please. 2.71

Tell me the measured inhibition of "COc1cc2ncn(-c3cc(OCc4ccccc4C(F)(F)F)c(C(=O)N(C)C)s3)c2cc1OC" , please. 0.64

Tell me the measured inhibition of "NS(=O)(=O)c1ccc(N/N=C2\C(=O)Nc3ccc4ncccc4c32)cc1" , please. 9.32

Tell me the measured inhibition of "Cc1ccc2c(-c3ccnc(Nc4ccccc4)n3)c(-c3ccc(F)cc3)nn2n1" , please. 58.4
